Biological target: hKOPr (Homo sapiens, UniProt P41145)
Sequence (P41145 whole entry): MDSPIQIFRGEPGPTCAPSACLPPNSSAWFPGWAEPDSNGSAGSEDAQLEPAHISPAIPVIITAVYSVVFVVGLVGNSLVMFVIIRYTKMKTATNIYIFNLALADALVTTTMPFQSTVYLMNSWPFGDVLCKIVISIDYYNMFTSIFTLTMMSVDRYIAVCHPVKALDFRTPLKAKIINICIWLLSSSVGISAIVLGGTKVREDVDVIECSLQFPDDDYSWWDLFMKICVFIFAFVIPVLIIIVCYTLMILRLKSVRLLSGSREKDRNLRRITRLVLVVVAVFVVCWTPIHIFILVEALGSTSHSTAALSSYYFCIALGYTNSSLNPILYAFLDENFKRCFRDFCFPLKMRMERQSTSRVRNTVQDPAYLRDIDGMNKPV
Test: biochemical
Where no end group is shown, it is not given here.
Property name: potency for hKOPr as compared to DynB (GTPγS)

| Entry sequence | Measurement target | Data value |
| --- | --- | --- |
| FGGFLRRQFKVVT [DynB_Y1F] | hKOPr (Homo sapiens, UniProt P41145) | strongly reduced potency |
| YGAFSRRQFKVVT [DynB_G3A/L5S] | hKOPr (Homo sapiens, UniProt P41145) | strongly reduced potency |
| YGMFSRRQFKVVT [DynB_G3M/L5S] | hKOPr (Homo sapiens, UniProt P41145) | strongly reduced potency |

* * *

Measured Selectivity DOPr/KOPr, listed per entry for reference.
Target: hKOPr (Homo sapiens, UniProt P41145)
Assay type: binding
Where no end group is shown, it is not given here.

Examples from the recorded data:
| Entry sequence | Measurement target | Property name | Data value |
| --- | --- | --- | --- |
| YGMFSRRQFKVVT [DynB_G3M/L5S] | hKOPr (Homo sapiens, UniProt P41145) | Selectivity DOPr/KOPr | 1,115 |
| FGGFLRRQFKVVT [DynB_Y1F] | hKOPr (Homo sapiens, UniProt P41145) | Selectivity DOPr/KOPr | 44 |
| YGAFLRRAFKVVT [DynB_G3A/Q8A] | hKOPr (Homo sapiens, UniProt P41145) | Selectivity DOPr/KOPr | 778 |

Field: next sequence
# Selectivity DOPr/KOPr (sequence: YGGFLRRHFKVVT [DynB_Q8H] ) is 507

* * *

Biological target: hKOPr (Homo sapiens)
Type: binding
Where no end group is shown, it is not given here.
Classify as follows. Reported Selectivity MOPr/KOPr greater than or equal to 60: class 1. Reported Selectivity MOPr/KOPr below: class 0.

Example entries and their recorded answers appear below.
| Entry sequence | Measurement target | Label value |
| --- | --- | --- |
| YGMFLRRHFKVVT [DynB_G3M/Q8H] | hKOPr (Homo sapiens) | class 1 |
| YGMFLRRQFKVVT [DynB_G3M] | hKOPr (Homo sapiens) | class 1 |
| YGGFSRRQFKVVT [DynB_L5S] | hKOPr (Homo sapiens) | class 1 |
| YGAFLRRHFKVVT [DynB_G3A/Q8H] | hKOPr (Homo sapiens) | class 1 |
| YGAFSRRQFKVVT [DynB_G3A/L5S] | hKOPr (Homo sapiens) | class 0 |
| YGMFSRRQFKVVT [DynB_G3M/L5S] | hKOPr (Homo sapiens) | class 0 |
| YGGFLRRHFKVVT [DynB_Q8H] | hKOPr (Homo sapiens) | class 0 |
| YGAFLRRQFAVVT [DynB_G3A/K10 A] | hKOPr (Homo sapiens) | class 0 |
| YGAFLRRAFKVVT [DynB_G3A/Q8A] | hKOPr (Homo sapiens) | class 1 |

Prompt: Does the reported Selectivity MOPr/KOPr for YGAFLRRQFKVVT [DynB_G3A] fall at or above the 60 mark?
Completion: class 0

* * *

Biological target: hKOPr (Homo sapiens, UniProt P41145)
Experiment: biochemical
Conditions: read-out: Potency at hKOPr EC50
Where no end group is shown, it is not given here.
Listed sequences paired with reported pEC50
# pEC50: negative log10 of molar concentration; output just the value

| Entry sequence | pEC50 |
| --- | --- |
| YGAFSRRQFKVVT [DynB_G3A/L5S] | 6.93 |
| YGAFLRRQFKVVT [DynB_G3A] | 7.56 |
| FGGFLRRQFKVVT [DynB_Y1F] | 6.41 |
| YGMFSRRQFKVVT [DynB_G3M/L5S] | 6.77 |

Reading of pEC50 for YGAFLRRHFKVVT [DynB_G3A/Q8H] with hKOPr (Homo sapiens, UniProt P41145): 8.17

# lookup: YGAFLRRAFKVVT [DynB_G3A/Q8A] on hKOPr (Homo sapiens, UniProt P41145), pEC50 = 7.83
